For each record, write down the corresponding CYP-450 % inh. 2C9.
# testedSystem: UniProt:P11712
# Sequence (P11712 whole entry): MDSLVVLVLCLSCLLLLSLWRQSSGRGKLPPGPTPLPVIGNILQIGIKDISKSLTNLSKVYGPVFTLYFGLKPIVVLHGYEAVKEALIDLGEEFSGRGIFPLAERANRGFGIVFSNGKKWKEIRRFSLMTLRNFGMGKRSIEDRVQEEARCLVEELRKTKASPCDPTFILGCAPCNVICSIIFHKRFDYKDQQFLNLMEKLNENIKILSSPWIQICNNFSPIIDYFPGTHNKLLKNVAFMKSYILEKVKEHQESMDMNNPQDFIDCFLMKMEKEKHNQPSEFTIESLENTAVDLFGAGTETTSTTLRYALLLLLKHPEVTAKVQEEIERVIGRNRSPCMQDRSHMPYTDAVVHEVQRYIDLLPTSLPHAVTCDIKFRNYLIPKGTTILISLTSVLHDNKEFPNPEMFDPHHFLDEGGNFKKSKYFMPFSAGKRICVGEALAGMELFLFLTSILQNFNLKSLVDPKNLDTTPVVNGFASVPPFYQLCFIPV
# assayRemarks: P450 cocktail inhibition assay, CYP2C9
# Assay type: in vitro ADME
# testContext: at 10 μM
Field: numeric (%). Do not append units.

IN: Name the recorded CYP-450 % inh. 2C9 for "O=C(Nc1cnn(-c2csc(C(=O)NC3COC3)c2)c1)Nc1ccccc1Cl" .
OUT: 8

IN: Name the recorded CYP-450 % inh. 2C9 for "O=C(Nc1cnn(-c2csc(C(=O)NC3CC3)c2)c1)Nc1ccccc1Cl" .
OUT: −4

IN: Name the recorded CYP-450 % inh. 2C9 for "O=C(Nc1cnn(-c2csc(C(=O)NC3COC3)c2)c1)Nc1c(F)cccc1Cl" .
OUT: 48

---

# assayRemarks: Microsomal stability, mouse
# Type: in vitro ADME
# testContext: mouse microsomes
Category | rule: reported Mic. stability t1/2 Mouse within range, see bucket 1 (below 20 min), bucket 2 (20 min to below 40 min), bucket 3 (40 min or more)

IN: Returns: class label. Input: "O=C(Nc1cnn(-c2csc(C(=O)NC3CC3)c2)c1)Nc1ccccc1Cl"
OUT: bucket 2

IN: Returns: class label. Input: "CN1CCC(NC(=O)c2cc(-n3cc(NC(=O)Nc4ccccc4Cl)cn3)cs2)CC1"
OUT: bucket 1

IN: Returns: class label. Input: "O=C(Nc1cnn(-c2csc(C(=O)NC3COC3)c2)c1)Nc1ccc(F)cc1Cl"
OUT: bucket 3

IN: Returns: class label. Input: "O=C(Nc1cnn(-c2csc(C(=O)NCC3CCOCC3)c2)c1)Nc1ccccc1Cl"
OUT: bucket 1

IN: Returns: class label. Input: "O=C(Nc1cnn(-c2csc(C(=O)N[C@@H]3CCOC3)c2)c1)Nc1ccccc1Cl"
OUT: bucket 1

IN: Returns: class label. Input: "Cc1sc(C(=O)NC2COC2)cc1-n1cc(NC(=O)Nc2c(F)cccc2Cl)cn1"
OUT: bucket 3

IN: Returns: class label. Input: "O=C(Nc1cnn(-c2csc(C(=O)NC3CCOCC3)c2)c1)Nc1ccccc1Cl"
OUT: bucket 1

IN: Returns: class label. Input: "O=C(Nc1cnn(-c2csc(C(=O)NC3COC3)c2)c1)Nc1ccccc1Cl"
OUT: bucket 2

IN: Returns: class label. Input: "O=C(Nc1cnn(-c2csc(C(=O)NC3COC3)c2)c1)Nc1c(F)cccc1Cl"
OUT: bucket 3

IN: Returns: class label. Input: "Cc1sc(C(=O)N[C@@H]2CCOC2)cc1-n1cc(NC(=O)Nc2c(F)cccc2Cl)cn1"
OUT: bucket 2

---

# Tested on: SHSY5Y cells
# assayRemarks: MTT cytotoxicity assay;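 also: compounds tested at 10 µM final concentration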
# Type: cell-based
# Parameters: dose or concentration left out as unconfirmed
# testContext: 48 hrs, average of ≥2 experiments
For each record, write down the corresponding MTT cell viability.
Please don't drop the unit; write it after the number.

IN: Name the recorded MTT cell viability for "CN1CCC(NC(=O)c2cc(-n3cc(NC(=O)Nc4ccccc4Cl)cn3)cs2)CC1" .
OUT: 89%

IN: Name the recorded MTT cell viability for "O=C(Nc1cnn(-c2csc(C(=O)NC3COC3)c2)c1)Nc1ccccc1Cl" .
OUT: 104%

IN: Name the recorded MTT cell viability for "O=C(Nc1cnn(-c2csc(C(=O)NCC3CCOCC3)c2)c1)Nc1ccccc1Cl" .
OUT: 95%

IN: Name the recorded MTT cell viability for "O=C(Nc1cnn(-c2csc(C(=O)NC3COC3)c2)c1)Nc1ccc(F)cc1Cl" .
OUT: 104%

IN: Name the recorded MTT cell viability for "Cc1sc(C(=O)NC2COC2)cc1-n1cc(NC(=O)Nc2c(F)cccc2Cl)cn1" .
OUT: 111%

IN: Name the recorded MTT cell viability for "O=C(Nc1cnn(-c2csc(C(=O)NC3CCOCC3)c2)c1)Nc1ccccc1Cl" .
OUT: 97%

IN: Name the recorded MTT cell viability for "CN1CC[C@H](NC(=O)c2cc(-n3cc(NC(=O)Nc4ccccc4Cl)cn3)cs2)C1" .
OUT: 94%

IN: Name the recorded MTT cell viability for "O=C(Nc1cnn(-c2csc(C(=O)NC3CC3)c2)c1)Nc1ccccc1Cl" .
OUT: 103%

---

For each record, write down the corresponding R: ratio of IC50 values of JNK1 over JNK3.
# testedSystem: JNK1 (Homo sapiens, UniProt P45983)
# Sequence (P45983 whole entry): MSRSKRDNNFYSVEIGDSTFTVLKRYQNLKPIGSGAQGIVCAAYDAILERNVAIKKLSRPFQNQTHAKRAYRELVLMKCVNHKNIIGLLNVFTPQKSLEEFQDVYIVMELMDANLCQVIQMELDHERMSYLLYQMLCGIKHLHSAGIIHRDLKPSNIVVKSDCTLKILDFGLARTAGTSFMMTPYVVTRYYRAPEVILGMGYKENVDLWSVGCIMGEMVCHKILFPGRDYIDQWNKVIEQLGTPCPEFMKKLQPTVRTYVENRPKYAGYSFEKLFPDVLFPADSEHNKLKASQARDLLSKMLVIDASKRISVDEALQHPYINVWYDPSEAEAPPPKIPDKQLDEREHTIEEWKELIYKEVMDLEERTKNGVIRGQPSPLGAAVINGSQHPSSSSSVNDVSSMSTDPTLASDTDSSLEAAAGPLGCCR
# assayRemarks: JNK1 homogeneous time-resolved fluorescence enzyme inhibition assay
# Type: biochemical
# testContext: isoform selectivity against JNK1
// print number alone

IN: Tell me reported R: ratio of IC50 values of JNK1 over JNK3 for "CC1(NC(=O)c2cc(-n3cc(NC(=O)Nc4ccccc4Cl)cn3)cs2)COC1" , tested with JNK1 (Homo sapiens, UniProt P45983).
OUT: 73

IN: Tell me reported R: ratio of IC50 values of JNK1 over JNK3 for "CN1CC[C@H](NC(=O)c2cc(-n3cc(NC(=O)Nc4ccccc4Cl)cn3)cs2)C1" , tested with JNK1 (Homo sapiens, UniProt P45983).
OUT: 56

IN: Tell me reported R: ratio of IC50 values of JNK1 over JNK3 for "CN1CC[C@H](CNC(=O)c2cc(-n3cc(NC(=O)Nc4ccccc4Cl)cn3)cs2)C1" , tested with JNK1 (Homo sapiens, UniProt P45983).
OUT: 46

IN: Tell me reported R: ratio of IC50 values of JNK1 over JNK3 for "O=C(Nc1cnn(-c2csc(C(=O)NC3CCOCC3)c2)c1)Nc1ccccc1Cl" , tested with JNK1 (Homo sapiens, UniProt P45983).
OUT: 38

---

# testedSystem: JNK1 (Homo sapiens)
# assayRemarks: JNK1 homogeneous time-resolved fluorescence enzyme inhibition assay
# Assay type: biochemical
# testContext: mean of ≥2 experiments; read-out: Biochemical inhibition IC50 JNK1
measurementType: IC50 (µM)
Field: numeric (µM). Do not append units.

IN: Name the recorded IC50 for "O=C(Nc1cnn(-c2csc(C(=O)NC[C@H]3CCOC3)c2)c1)Nc1ccccc1Cl" .
OUT: 2.2

IN: Name the recorded IC50 for "O=C(Nc1cnn(-c2csc(C(=O)NCC3CCNCC3)c2)c1)Nc1ccccc1Cl" .
OUT: 6.6

IN: Name the recorded IC50 for "O=C(Nc1cnn(-c2csc(C(=O)NC3CNC3)c2)c1)Nc1ccccc1Cl" .
OUT: 3.6

IN: Name the recorded IC50 for "CC1(NC(=O)c2cc(-n3cc(NC(=O)Nc4ccccc4Cl)cn3)cs2)COC1" .
OUT: 3.3

IN: Name the recorded IC50 for "O=C(Nc1cnn(-c2csc(C(=O)NC3COC3)c2)c1)Nc1ccccc1Cl" .
OUT: 5.9

IN: Name the recorded IC50 for "O=C(Nc1cnn(-c2csc(C(=O)N[C@@H]3CCOC3)c2)c1)Nc1ccccc1Cl" .
OUT: 1.5

IN: Name the recorded IC50 for "CC(C)N1CC[C@H](NC(=O)c2cc(-n3cc(NC(=O)Nc4ccccc4Cl)cn3)cs2)C1" .
OUT: 0.72

IN: Name the recorded IC50 for "[2H]C([2H])([2H])N1CC[C@@H](NC(=O)c2cc(-n3cc(NC(=O)Nc4ccccc4Cl)cn3)cs2)C1" .
OUT: 5.1

---

# testedSystem: JNK1 (Homo sapiens)
# assayRemarks: JNK1 homogeneous time-resolved fluorescence enzyme inhibition assay
# Format: biochemical
pIC50: −log10 of the molar value.
measurementType: pIC50

IN: Tell me reported pIC50 for "CNC(=O)c1cc(-n2cc(NC(=O)Nc3ccccc3Cl)cn2)cs1" , tested with JNK1 (Homo sapiens).
OUT: < 4.70

---

# testedSystem: UniProt P11712
# assayRemarks: P450 cocktail inhibition assay, CYP2C9
# Type: in vitro ADME
# testContext: at 10 μM
For each record, write down the corresponding CYP-450 % inh. 2C9.
Field: numeric (%). Do not append units.

IN: Name the recorded CYP-450 % inh. 2C9 for CN1CC[C@H](NC(=O)c2cc(-n3cc(NC(=O)Nc4ccccc4Cl)cn3)cs2)C1 [Compound 12] .
OUT: −9

IN: Name the recorded CYP-450 % inh. 2C9 for Cc1sc(C(=O)N[C@@H]2CCOC2)cc1-n1cc(NC(=O)Nc2c(F)cccc2Cl)cn1 [Compound 28] .
OUT: 35

IN: Name the recorded CYP-450 % inh. 2C9 for O=C(Nc1cnn(-c2csc(C(=O)NCC3CCOCC3)c2)c1)Nc1ccccc1Cl [Compound 24] .
OUT: 64

IN: Name the recorded CYP-450 % inh. 2C9 for O=C(Nc1cnn(-c2csc(C(=O)NC3COC3)c2)c1)Nc1ccc(F)cc1Cl [Compound 26] .
OUT: 47

---

# assayRemarks: Microsomal stability, human
# Assay type: in vitro ADME
# testContext: human microsomes
measurementType: Mic. stability t1/2 Human (h)
Field: numeric (h). Do not append units.

IN: Name the recorded Mic. stability t1/2 Human for "O=C(Nc1cnn(-c2csc(C(=O)NC3COC3)c2)c1)Nc1c(F)cccc1Cl" .
OUT: 1.67

IN: Name the recorded Mic. stability t1/2 Human for "O=C(Nc1cnn(-c2csc(C(=O)NCC3CCOCC3)c2)c1)Nc1ccccc1Cl" .
OUT: 0.13

IN: Name the recorded Mic. stability t1/2 Human for "Cc1sc(C(=O)NC2COC2)cc1-n1cc(NC(=O)Nc2c(F)cccc2Cl)cn1" .
OUT: 1.83

IN: Name the recorded Mic. stability t1/2 Human for "O=C(Nc1cnn(-c2csc(C(=O)N[C@@H]3CCOC3)c2)c1)Nc1ccccc1Cl" .
OUT: 0.55

IN: Name the recorded Mic. stability t1/2 Human for "O=C(Nc1cnn(-c2csc(C(=O)NC3COC3)c2)c1)Nc1ccccc1Cl" .
OUT: 1.1

IN: Name the recorded Mic. stability t1/2 Human for "CN1CCC(NC(=O)c2cc(-n3cc(NC(=O)Nc4ccccc4Cl)cn3)cs2)CC1" .
OUT: 1.53

IN: Name the recorded Mic. stability t1/2 Human for "Cc1sc(C(=O)N[C@@H]2CCOC2)cc1-n1cc(NC(=O)Nc2c(F)cccc2Cl)cn1" .
OUT: 0.667

IN: Name the recorded Mic. stability t1/2 Human for "CN1CC[C@H](NC(=O)c2cc(-n3cc(NC(=O)Nc4ccccc4Cl)cn3)cs2)C1" .
OUT: 0.9
